All values here come from paper PMC4282894.

This listing pairs compounds with measured inhibition at 2500 µM.
- system_tested: L. acidophilus BSH (rBSH; LaciP) (Lactobacillus acidophilus)
- Construct: full-length BSH (316 aa), C-terminal His tag, pET-21b(+), E. coli BL21(DE3), Ni-NTA; about 32 kDa on SDS-PAGE
- Sequence (A5HKP3 whole entry): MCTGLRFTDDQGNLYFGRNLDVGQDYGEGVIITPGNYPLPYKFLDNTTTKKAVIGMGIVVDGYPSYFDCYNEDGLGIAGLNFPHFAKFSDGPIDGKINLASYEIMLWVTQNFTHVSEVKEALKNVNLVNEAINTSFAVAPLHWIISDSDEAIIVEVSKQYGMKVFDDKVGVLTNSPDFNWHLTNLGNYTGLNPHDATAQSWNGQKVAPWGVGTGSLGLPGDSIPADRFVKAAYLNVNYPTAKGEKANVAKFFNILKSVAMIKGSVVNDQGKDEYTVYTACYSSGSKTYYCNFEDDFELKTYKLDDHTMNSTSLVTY
- measurement_protocol: two-step ninhydrin BSH assay (glycine release from glycocholic acid)
- Assay type: biochemical
Where a name gives a salt, the structure may show the parent alone.
endpoint: inhibition at 2500 µM (%)

compound	endpoint	obs_value
O=C(/C=C/c1ccc(O)c(O)c1)OCCc1ccccc1 [Caffeic Acid Phenethyl Ester]	inhibition at 2500 µM	71.8
O=C(O[C@@H]1Cc2c(O)cc(O)cc2O[C@@H]1c1ccc(O)c(O)c1)c1cc(O)c(O)c(O)c1 [Epicatechin monogallate]	inhibition at 2500 µM	52.8
O=c1c(O)c(-c2ccc(O)c(O)c2)oc2c(O)c(O)cc(O)c12 [Gossypetin]	inhibition at 2500 µM	96.1
CN(C)[C@@H]1C(O)=C(C(N)=O)C(=O)[C@@]2(O)C(O)=C3C(=O)c4c(O)ccc(Cl)c4[C@@H](O)[C@H]3C[C@@H]12 [Demeclocycline Hydrochloride]	inhibition at 2500 µM	99.6
C[C@H]1c2cccc(O)c2C(O)=C2C(=O)[C@]3(O)C(O)=C(C(N)=O)C(=O)[C@@H](N(C)C)[C@@H]3[C@@H](O)[C@@H]21 [Doxycycline Hydrochloride]	inhibition at 2500 µM	98.3
O=c1c(O)cccc2cc(O)c(O)c(O)c12 [Purpurogallin]	inhibition at 2500 µM	36.1
